target: Solute carrier family 22 member 1 (Mus musculus, UniProt O08966); assay: TP_TRANSPORTER: inhibition of MPP+ uptake in Xenopus laevis oocytes
Sequence (O08966 whole entry): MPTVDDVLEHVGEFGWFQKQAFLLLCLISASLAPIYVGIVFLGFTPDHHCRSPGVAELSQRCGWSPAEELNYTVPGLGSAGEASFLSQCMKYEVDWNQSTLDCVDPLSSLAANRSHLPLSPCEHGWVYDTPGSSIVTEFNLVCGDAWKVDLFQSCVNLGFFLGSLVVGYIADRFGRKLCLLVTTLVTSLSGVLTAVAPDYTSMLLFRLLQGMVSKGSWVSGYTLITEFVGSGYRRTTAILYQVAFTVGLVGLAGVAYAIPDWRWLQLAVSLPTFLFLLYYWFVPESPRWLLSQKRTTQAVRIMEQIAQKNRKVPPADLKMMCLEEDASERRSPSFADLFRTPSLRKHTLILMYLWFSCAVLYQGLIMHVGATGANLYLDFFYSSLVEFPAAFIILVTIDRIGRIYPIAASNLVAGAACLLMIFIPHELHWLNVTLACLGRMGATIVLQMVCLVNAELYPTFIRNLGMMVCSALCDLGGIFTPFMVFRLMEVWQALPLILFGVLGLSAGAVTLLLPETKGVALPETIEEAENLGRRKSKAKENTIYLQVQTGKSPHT
Task for the reader: assign each of the following compounds its reported pKi.
Numbers only, as −log10 of the molar value.

Use the examples below as a reference point.
CCCC[N+](CCCC)(CCCC)CCCC [TETRABUTHYLAMMONIUM] ... 5.14
CC[N+](CC)(CC)CC [TETRYLAMMONIUM] ... 3.89

Provide reported pKi for each item, in the same order as listed.
1. CCC[N+](CCC)(CCC)CCC [TETRAPROPYLAMMONIUM]
2. C[N+](C)(C)C [TETRAMETHYLAMMONIUM]

4.70
2.69

---

biological target: Solute carrier family 22 member 1 (Homo sapiens, UniProt O15245); assay: TP_TRANSPORTER: inhibition of MPP+ uptake in Xenopus laevis oocytes
Sequence (O15245 whole entry): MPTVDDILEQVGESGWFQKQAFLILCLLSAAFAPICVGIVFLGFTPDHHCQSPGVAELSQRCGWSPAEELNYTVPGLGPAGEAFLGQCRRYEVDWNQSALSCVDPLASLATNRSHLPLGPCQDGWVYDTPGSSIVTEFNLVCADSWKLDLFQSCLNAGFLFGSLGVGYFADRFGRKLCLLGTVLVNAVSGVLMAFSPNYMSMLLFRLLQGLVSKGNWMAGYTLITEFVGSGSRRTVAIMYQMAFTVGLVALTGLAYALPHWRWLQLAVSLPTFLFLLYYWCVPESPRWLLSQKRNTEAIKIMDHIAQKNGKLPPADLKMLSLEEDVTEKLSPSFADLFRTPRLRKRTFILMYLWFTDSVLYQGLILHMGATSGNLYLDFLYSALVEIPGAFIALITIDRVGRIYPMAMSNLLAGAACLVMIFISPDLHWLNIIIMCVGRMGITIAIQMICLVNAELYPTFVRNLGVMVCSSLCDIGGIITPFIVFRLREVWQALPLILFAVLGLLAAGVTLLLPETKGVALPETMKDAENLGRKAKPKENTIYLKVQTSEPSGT
measure-name: Ki (µM)
Answers are plain numbers, in µM.

Use the examples below as a reference point.
CC[N+](CC)(CC)CC [TETRYLAMMONIUM] ... 158
CCCC[N+](CCCC)(CCCC)CCCC [TETRABUTHYLAMMONIUM] ... 29.6
CCC[N+](CCC)(CCC)CCC [TETRAPROPYLAMMONIUM] ... 102

We next turn to a different compound, shown below.
# value lookup — system Solute carrier family 22 member 1 (Homo sapiens, UniProt O15245), readout Ki, item C[N+](C)(C)C [TETRAMETHYLAMMONIUM]
12400

---

Task for the reader: assign each of the following compounds its reported pKi.
Target: Solute carrier family 22 member 1 (Rattus norvegicus, UniProt Q63089)
Sequence (Q63089 whole entry): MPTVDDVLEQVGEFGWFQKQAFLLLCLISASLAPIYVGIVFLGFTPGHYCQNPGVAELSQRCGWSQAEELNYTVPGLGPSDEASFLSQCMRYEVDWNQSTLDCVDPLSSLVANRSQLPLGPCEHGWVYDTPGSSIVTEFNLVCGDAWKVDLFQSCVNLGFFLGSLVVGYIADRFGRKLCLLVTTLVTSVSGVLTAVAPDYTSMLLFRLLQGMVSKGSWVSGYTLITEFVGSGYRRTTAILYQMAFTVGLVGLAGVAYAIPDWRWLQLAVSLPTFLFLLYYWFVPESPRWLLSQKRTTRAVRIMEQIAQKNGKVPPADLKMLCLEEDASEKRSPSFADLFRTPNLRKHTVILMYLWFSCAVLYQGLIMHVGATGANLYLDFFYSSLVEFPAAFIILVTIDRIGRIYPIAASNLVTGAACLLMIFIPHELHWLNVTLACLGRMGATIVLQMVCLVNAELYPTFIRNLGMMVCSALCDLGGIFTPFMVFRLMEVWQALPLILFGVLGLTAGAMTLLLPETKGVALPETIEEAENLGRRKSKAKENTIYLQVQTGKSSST
Test: TP_TRANSPORTER: inhibition of MPP+ uptake in Xenopus laevis oocytes
One number for each entry, as −log10 of the molar value.

Use the examples below as a reference point.
CCCC[N+](CCCC)(CCCC)CCCC ... 4.77
CC[N+](CC)(CC)CC ... 4.00

We next turn to a different compound, shown below.
Item under review: CCC[N+](CCC)(CCC)CCC . Reported pKi?
4.68

Measured values drawn from ChEMBL document CHEMBL2074488 for this set.
